- TARGET_SYSTEM: INTS10-INTS13-INTS14 heterotrimer (Homo sapiens, UniProt Q9NVR2;Q9NVM9;Q96SY0 1-710;1-706;1-518)
- Sequence (Q9NVR2 whole entry, chain 1 of 3): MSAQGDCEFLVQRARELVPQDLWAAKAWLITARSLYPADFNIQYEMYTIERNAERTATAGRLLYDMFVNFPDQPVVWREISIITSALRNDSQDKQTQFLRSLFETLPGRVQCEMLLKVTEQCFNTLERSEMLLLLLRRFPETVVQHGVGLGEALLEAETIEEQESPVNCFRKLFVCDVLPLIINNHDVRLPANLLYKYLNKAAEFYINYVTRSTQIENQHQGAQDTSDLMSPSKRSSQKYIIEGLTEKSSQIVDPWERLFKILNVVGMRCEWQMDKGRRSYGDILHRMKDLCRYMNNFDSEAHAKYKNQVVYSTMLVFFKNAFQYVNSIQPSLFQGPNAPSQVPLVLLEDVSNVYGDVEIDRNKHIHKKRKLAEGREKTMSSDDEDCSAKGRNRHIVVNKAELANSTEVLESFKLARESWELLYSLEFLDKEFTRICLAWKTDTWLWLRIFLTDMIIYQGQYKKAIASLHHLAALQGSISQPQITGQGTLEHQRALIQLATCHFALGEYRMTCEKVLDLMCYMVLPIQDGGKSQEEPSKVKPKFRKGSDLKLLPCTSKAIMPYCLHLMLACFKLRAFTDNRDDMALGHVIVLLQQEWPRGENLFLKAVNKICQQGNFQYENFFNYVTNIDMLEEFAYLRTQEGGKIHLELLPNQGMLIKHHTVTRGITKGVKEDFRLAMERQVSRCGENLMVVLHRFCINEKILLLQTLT
- Sequence (Q9NVM9 whole entry, chain 2 of 3): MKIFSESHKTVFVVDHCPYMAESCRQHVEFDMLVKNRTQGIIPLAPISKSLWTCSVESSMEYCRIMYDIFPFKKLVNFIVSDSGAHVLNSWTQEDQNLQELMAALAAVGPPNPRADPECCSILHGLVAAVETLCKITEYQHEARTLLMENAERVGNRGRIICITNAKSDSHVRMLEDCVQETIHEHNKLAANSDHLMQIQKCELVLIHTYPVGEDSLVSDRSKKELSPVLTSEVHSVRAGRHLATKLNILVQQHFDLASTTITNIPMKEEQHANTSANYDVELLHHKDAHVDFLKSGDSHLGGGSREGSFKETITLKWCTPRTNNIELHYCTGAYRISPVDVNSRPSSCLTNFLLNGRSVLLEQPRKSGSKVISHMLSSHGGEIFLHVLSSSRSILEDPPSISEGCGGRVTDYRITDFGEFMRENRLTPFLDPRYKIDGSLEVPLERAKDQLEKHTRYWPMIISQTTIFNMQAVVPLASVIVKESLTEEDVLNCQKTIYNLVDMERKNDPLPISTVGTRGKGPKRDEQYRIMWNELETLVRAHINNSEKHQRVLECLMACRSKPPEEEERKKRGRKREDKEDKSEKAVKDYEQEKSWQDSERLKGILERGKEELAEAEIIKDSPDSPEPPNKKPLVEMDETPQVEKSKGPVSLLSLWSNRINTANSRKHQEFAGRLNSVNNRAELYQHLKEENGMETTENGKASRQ
- Sequence (Q96SY0 whole entry, chain 3 of 3): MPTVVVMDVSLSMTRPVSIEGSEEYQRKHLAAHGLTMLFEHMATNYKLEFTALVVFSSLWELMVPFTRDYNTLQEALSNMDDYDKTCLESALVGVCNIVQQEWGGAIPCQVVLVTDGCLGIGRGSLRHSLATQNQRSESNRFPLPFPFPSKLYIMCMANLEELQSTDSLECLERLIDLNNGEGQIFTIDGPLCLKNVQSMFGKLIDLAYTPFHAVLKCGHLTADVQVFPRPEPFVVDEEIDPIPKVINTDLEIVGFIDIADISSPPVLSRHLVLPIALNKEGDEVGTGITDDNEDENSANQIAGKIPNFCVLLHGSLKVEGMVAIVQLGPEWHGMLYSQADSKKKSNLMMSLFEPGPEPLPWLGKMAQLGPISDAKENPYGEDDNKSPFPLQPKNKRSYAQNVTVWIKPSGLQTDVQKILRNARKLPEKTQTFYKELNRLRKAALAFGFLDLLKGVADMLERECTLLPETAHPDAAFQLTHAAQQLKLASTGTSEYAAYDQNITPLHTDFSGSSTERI
- ASSAY_EXPLANATION: fluorescence polarization; FP: 10 nM RNA, 10 mM HEPES pH 7.5, 5% glycerol, 2 mM MgCl2, 50 mM NaCl or none added, temperature not stated; EMSA: 50 mM HEPES pH 7.5, 200 mM NaCl, 2 mM MgCl2, on ice, 2 uM RNA or 1 uM DNA
- STATED_CONDITIONS: protein: recombinant; tags: INTS13 N-terminal 2xStrep, HRV 3C cleavable (removed if needed); copies: 1;1;1; label: 5'-6-FAM; single strand
METRIC: Kd (nM)

- UUUUUUUUUUUU (ssRNA) [U12 RNA]: 420

Reference for the values: paper PMC7347597
